- subjectOfTest: human carbonic anhydrase IX (hCAIX-Fc) (Homo sapiens, UniProt Q16790)
- Construct: purchased SinoBliological (Sino Biological) 10107-H02H
- testSummary: Surface plasmon resonance assay with hCAIX-Fc
- Type: binding
- measurementContext: SPR dissociation half-life, hCAIX-Fc, 25° C.
Starred links: 1 amine or outer side, 2 acyl side, 3 side chain; linkers in the order of their positions; H or OH if unused. Positions of bridges follow the written chain, without caps; N, C: chain ends. Non-standard residues stand in square brackets, D forms with d. Residues, ends and D or L forms follow the SMILES beside them. *: point of attachment. X3 = O=C(O)CN1CCN(CC(=O)O)CCN(CC(=O)NCCCOCCOCCOCCCN*)CCN(CC(=O)O)CC1; DOTA = O=C(O)CN1CCN(CC(=O)O)CCN(CC(=O)*)CCN(CC(=O)O)CC1; mXylylene = c1cc(C[*:1])cc(C[*:2])c1; Suc = O=C(CCC(=O)[*:2])[*:1]; 3Amb = NCc1cccc(C(=O)O)c1; Dap = NC[C@H](N)C(=O)O
measuredAttribute: t1/2 category (activity)

- molecule: "CC(C)C[C@@H]1NC(=O)[C@H](Cc2c[nH]c3ccccc23)NC(=O)[C@H](CC(=O)O)NC(=O)[C@H]2CCCN2C(=O)[C@H](CCC(=O)O)NC(=O)[C@@H]2CSCc3cccc(c3)CSC[C@@H](C(N)=O)NC(=O)[C@H](CNC(=O)C[C@H](NC(=O)c3cccc(CNC(=O)CN4CCN(CC(=O)O)CCN(CC(=O)O)CCN(CC(=O)O)CC4)c3)C(=O)N2)NC(=O)[C@H](Cc2c[nH]c3ccccc23)NC(=O)[C@H]([C@@H](C)O)NC1=O [3BP-4260] ({DOTA-3Amb}-DCE[dP]DWLTW[Dap]C-NH2; lactam 1-10; linker 2-11 via mXylylene)"
  measuredAttribute: "t1/2 category (activity)"
  reportedValue: "D (t1/2≤2.0 minutes)"
- molecule: "CC(C)C[C@@H]1NC(=O)[C@H](Cc2c[nH]c3ccccc23)NC(=O)[C@H](CC(=O)O)NC(=O)CNC(=O)[C@H](CCC(=O)O)NC(=O)[C@@H](NC(=O)[C@H](Cc2ccc(O)cc2)NC(=O)[C@@H](NC(=O)CCC(=O)NCCCOCCOCCOCCCNC(=O)CN2CCN(CC(=O)O)CCN(CC(=O)O)CCN(CC(=O)O)CC2)C(C)C)CSCc2cccc(c2)CSC[C@@H](C(N)=O)NC(=O)[C@H](CCC(N)=O)NC(=O)[C@H](Cc2c[nH]c3ccccc23)NC(=O)[C@H]([C@@H](C)O)NC1=O [3BP-2959] ({X3-Suc}-VYCEGDWLTWQC-NH2; linker 3-12 via mXylylene)"
  measuredAttribute: "t1/2 category (activity)"
  reportedValue: "D (t1/2≤2.0 minutes)"

====

- testSummary: Dose range finding study by intravenous route with toxicokinetics
- Format: in vivo, beagle dogs
- measurementContext: male, beagle, iv; Day 5; 0.08 mg/kg i.v.; dog plasma; mean n = 2
measuredAttribute: AUC(0-t) (ng·h/mL)
Give the value, in units of ng·h/mL, as a plain number.

Value of AUC(0-t) reported for the compound "CC(C)C[C@@H]1NC(=O)[C@H](Cc2cccc(NC(=O)CCCS(N)(=O)=O)c2)NC(=O)[C@H](CC(=O)O)NC(=O)[C@H]2CCCN2C(=O)[C@H](CCC(=O)O)NC(=O)[C@@H](NC(=O)[C@H](CCC(N)=O)NC(=O)CN2CCN(C(=O)CN3CCN(CC(=O)O)CCN(CC(=O)O)CCN(CC(=O)O)CC3)CC2)CSCc2cccc(c2)CSC[C@@H](C(N)=O)NC(=O)[C@H](CO)NC(=O)[C@H](Cc2c[nH]c3ccccc23)NC(=O)[C@H]([C@@H](C)O)NC1=O" is 117

Reference source: patent US20250339569A1
